The compounds below each have a reported IC50 tested on TYRO3 (Homo sapiens, UniProt Q06418); the values come from various publications.
Readout kind: IC50

Compound | Reported value
COC[C@H](C)Nc1ncc2c(-c3cnn(C4(C(=O)NC(C)C)CC4)c3)cc([C@H]3CC[C@H](O)CC3)n2n1 | ≤ 100 nM
COC[C@H](C)Nc1ncc2c(-c3ccc(CC(=O)O)cc3)cc([C@H]3CC[C@H](O)CC3)n2n1 | ≤ 100 nM
COC[C@H](C)Nc1ncc2c(OC3C[C@@H](C)N(C)[C@@H](C)C3)ncc([C@H]3CC[C@H](O)CC3)c2n1 (stereo partly drawn) | ≤ 100 nM
COC[C@H](C)Nc1ncc2c(O[C@H]3C[C@@H](C(=O)N4CCN(C)CC4)C3)ncc([C@H]3CC[C@H](O)CC3)c2n1 | ≤ 100 nM
c1cc2c(cc1-c1cnc3[nH]nc(-c4ccc(N5C[C@H]6C[C@@H]5CO6)cc4)c3c1)CC[C@@H](N1C3COCC1C3)CC2 | > 1000 nM
COC[C@H](C)Nc1ncc2c(-c3cnn(Cc4ccc(S(C)(=O)=O)cc4)c3)cc([C@H]3CC[C@H](O)CC3)n2n1 | ≤ 100 nM
C[C@@H](CC(F)(F)F)Nc1ncc2c(-c3cnn(C(C)(C)C(=O)N4CC5(COC5)C4)c3)cc([C@H]3CC[C@H](O)CC3)n2n1 | ≤ 100 nM
COC[C@@H](C)Nc1ncc2c(OC3CC(O)C3)ncc([C@H]3CC[C@H](O)CC3)c2n1 (stereo partly drawn) | ≤ 100 nM
CNC(=O)c1ncc(-c2cc([C@H]3CC[C@H](O)CC3)n3nc(N[C@@H](C)COC(F)F)ncc23)cn1 | ≤ 100 nM
CCC(CC)Nc1ncc2c(=O)n(C3CCNCC3)cc([C@H]3CC[C@H](O)CC3)c2n1 | ≤ 100 nM
CS(=O)(=O)N1CCC(c2cc(-c3ccc(NC(=O)c4cccn(-c5ccc(F)cc5)c4=O)cc3)c3c(N)ncnn23)CC1 | 10 to 100 nM
CCCCC[C@H](C)Nc1ncc2c(-c3ccc(CN4CCN(C)CC4)cc3)cc([C@H]3CC[C@H](O)CC3)n2n1 | ≤ 100 nM
CCCC(C)Nc1ncc2c(O[C@H]3CC[C@@H](O)CC3)ncc([C@H]3CC[C@H](O)CC3)c2n1 (stereo partly drawn) | ≤ 100 nM
COC[C@H](C)Nc1ncc2c(O[C@@H]3CCN(C)C3)ncc([C@H]3CC[C@H](O)CC3)c2n1 | 100 to 1000 nM
CC(C)n1cc(C(=O)Nc2ccc(-c3cc(C(=O)N(C)C)n4ncnc(N)c34)cc2)c(=O)n(-c2cccc(F)c2)c1=O | > 100 nM
CS(=O)(=O)c1ccc(-c2n[nH]c3ncc(-c4ccc5c(c4)CCN(C4CCCC4)CC5)cc23)cc1 | < 100 nM
COC[C@H](C)Nc1ncc2c([C@H]3CC[C@H](C(C)=O)CC3)cc([C@H]3CC[C@H](O)CC3)n2n1 | ≤ 100 nM
CCCCC[C@H](C)Nc1ncc2c([C@H]3CC[C@H](C(=O)N4CCOCC4)CC3)cc([C@H]3CC[C@H](O)CC3)n2n1 | 100 to 1000 nM
C[C@@H](COC(F)F)Nc1ncc2c(-c3ccnc(N4CCOC(C(C)(C)O)C4)c3)cc([C@H]3CC[C@H](O)CC3)n2n1 (stereo partly drawn) | ≤ 100 nM
CN(C)C(=O)c1ccc(-c2n[nH]c3ncc(-c4ccc5c(c4)CC[C@@H](N4C6COCC4C6)CC5)cc23)cc1 | 100 to 1000 nM
COC[C@H](C)Nc1ncc2c(-c3cnn(C4CN(C(=O)C5COC5)C4)c3)cc([C@H]3CC[C@H](O)CC3)n2n1 | ≤ 100 nM
Cc1cccc(-n2c(=O)c(C(=O)Nc3ccc(-c4cc(C5CCN(C(=O)C(C)C)CC5)n5ncnc(N)c45)cc3)cn(C(C)C)c2=O)n1 | > 100 nM
COC1CCN(C(=O)c2ccc(-c3n[nH]c4ncc(-c5ccc6c(c5)CCC(C)(N5CCC[C@H]5C)CC6)cc34)cc2)CC1 (stereo partly drawn) | 100 to 1000 nM
COC[C@H](C)Nc1ncc2c(-c3ccc4c(c3)CNC4=O)cc([C@H]3CC[C@H](O)CC3)n2n1 | ≤ 100 nM
CCCC(C)Nc1ncc2c(O[C@H]3C[C@H]4CC[C@@H](C3)O4)ncc([C@H]3CC[C@H](O)CC3)c2n1 (stereo partly drawn) | 100 to 1000 nM
COC[C@H](C)Nc1ncc2c(OC3CCOCC3)ncc(-c3ccc(F)cc3)c2n1 | 1000 to 10000 nM
C[C@@H]1CCCN1C1(C)CCc2ccc(-c3cnc4[nH]nc(-c5ccc(C(=O)N[C@@H]6CCOC6)cc5)c4c3)cc2CC1 (stereo partly drawn) | > 1000 nM
